# experiment: Inhibition of adrenergic alpha-2 receptor
readoutType: IC50

Problem: Requested read-out: IC50. Entry: CC1NC(N)=Nc2cccc(Cl)c21 (stereo unspecified)
Result: > 400 nM

----------
# targetOrSystem: 5-hydroxytryptamine receptor 5A (Homo sapiens)
# experiment: Displacement of [3H]LSD from human recombinant 5HT5A receptor expressed in HEK293-EBNA cells
# Format: cell-based
pKi: −log10 of the molar value.
Label Y when pKi >= 7; otherwise N.

Field: example entries. Status: answers known.
compound	targetOrSystem	category
NC1=Nc2ccccc2CN1	5-hydroxytryptamine receptor 5A (Homo sapiens)	N
NC1=Nc2c(F)cccc2CN1	5-hydroxytryptamine receptor 5A (Homo sapiens)	N
NC1=Nc2ccc(F)cc2CN1	5-hydroxytryptamine receptor 5A (Homo sapiens)	N
CCCC1NC(N)=Nc2ccccc21 (stereo unspecified)	5-hydroxytryptamine receptor 5A (Homo sapiens)	N
COc1c(Cl)ccc2c1C(C)NC(N)=N2 (stereo unspecified)	5-hydroxytryptamine receptor 5A (Homo sapiens)	Y
Cc1ccc2c(c1)N=C(N)NC2	5-hydroxytryptamine receptor 5A (Homo sapiens)	N

Problem: Dear colleague, could you confirm whether `CC1(C)NC(N)=Nc2ccccc21` has pKi at or above 7?
Result: N

Problem: Dear colleague, could you confirm whether `Cc1cccc2c1N=C(N)NC2` has pKi at or above 7?
Result: N

Problem: Dear colleague, could you confirm whether `NC1=Nc2cc(Cl)ccc2CN1` has pKi at or above 7?
Result: N

Problem: Dear colleague, could you confirm whether CCC1NC(N)=Nc2ccccc21 (stereo unspecified) has pKi at or above 7?
Result: Y

Problem: Dear colleague, could you confirm whether `NC1=Nc2ccc(Cl)cc2CN1` has pKi at or above 7?
Result: N

Problem: Dear colleague, could you confirm whether `CNC1=Nc2ccccc2CN1` has pKi at or above 7?
Result: N

Problem: Dear colleague, could you confirm whether CCC1NC(N)=Nc2ccc(Cl)c(Cl)c21 (stereo unspecified) has pKi at or above 7?
Result: Y

----------
# experiment: Protein binding in mouse plasma
# Format: ADME, cell-free
# assayContext: read-out: PPB (converted)
readoutType: fraction unbound
Numbers only.

Problem: Requested read-out: fraction unbound. Entry: CC1NC(N)=Nc2cccc(Cl)c21 (stereo unspecified)
Result: 0.16

----------
# targetOrSystem: 5-hydroxytryptamine receptor 6 (Homo sapiens)
# Sequence (P50406 whole entry): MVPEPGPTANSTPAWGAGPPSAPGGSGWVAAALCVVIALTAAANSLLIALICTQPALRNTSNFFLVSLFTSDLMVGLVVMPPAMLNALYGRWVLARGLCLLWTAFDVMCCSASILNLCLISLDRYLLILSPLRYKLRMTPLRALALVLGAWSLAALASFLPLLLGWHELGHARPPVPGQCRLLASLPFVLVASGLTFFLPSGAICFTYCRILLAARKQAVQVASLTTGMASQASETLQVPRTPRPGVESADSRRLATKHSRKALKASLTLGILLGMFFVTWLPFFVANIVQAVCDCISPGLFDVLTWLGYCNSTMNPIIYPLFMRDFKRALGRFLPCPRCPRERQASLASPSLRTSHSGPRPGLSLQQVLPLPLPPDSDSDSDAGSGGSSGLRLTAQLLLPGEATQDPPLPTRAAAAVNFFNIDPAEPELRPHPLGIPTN
# experiment: Displacement of [3H]LSD from human recombinant 5HT6 receptor expressed in HEK293-EBNA cells
# Format: cell-based
readoutType: Ki (nM)
Answers are plain numbers, in nM.

Problem: Requested read-out: Ki. Entry: `NC1=Nc2ccc(Cl)c(Cl)c2CN1`
Result: 1160

----------
# targetOrSystem: UniProt P28335
# Sequence (P28335 whole entry): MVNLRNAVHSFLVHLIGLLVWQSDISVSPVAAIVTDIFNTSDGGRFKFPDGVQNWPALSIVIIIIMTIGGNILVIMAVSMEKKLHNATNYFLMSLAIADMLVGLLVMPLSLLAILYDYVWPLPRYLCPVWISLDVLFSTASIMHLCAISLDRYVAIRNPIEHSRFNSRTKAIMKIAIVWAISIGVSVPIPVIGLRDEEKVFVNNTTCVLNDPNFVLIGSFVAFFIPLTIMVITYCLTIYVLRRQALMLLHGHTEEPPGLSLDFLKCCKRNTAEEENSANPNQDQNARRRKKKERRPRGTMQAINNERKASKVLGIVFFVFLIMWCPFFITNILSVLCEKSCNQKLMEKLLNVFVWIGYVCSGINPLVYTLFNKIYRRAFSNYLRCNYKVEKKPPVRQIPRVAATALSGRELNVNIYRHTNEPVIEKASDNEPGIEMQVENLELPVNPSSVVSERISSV
# experiment: Displacement of [3H]mesulergine from human recombinant 5HT2C receptor expressed in HEK293-EBNA cells
readoutType: pKi
Numbers only, as −log10 of the molar value.

// solved cases for pKi follow
molecule	pKi
COc1c(Cl)ccc2c1C(C)NC(N)=N2 (centres undefined)	7.13
CNC1=Nc2c(OC(C)C)cccc2C(C)N1 (centres undefined)	6.01
CNC1=Nc2ccc(Cl)c(Cl)c2C(C)N1 (centres undefined)	7.03
CNC1=Nc2cccc(Cl)c2C(C)N1 (centres undefined)	6.63

Hi! Can you tell me pKi for each of these molecules?
1. CC(C)Oc1cccc2c1N=C(N)NC2C (centres undefined)
2. CC1NC(N)=Nc2c(Cl)ccc(Cl)c21 (centres undefined)
3. COc1cccc2c1N=C(N)NC2C (centres undefined)
4. CC1NC(N)=Nc2cccc(Cl)c21 (centres undefined)
5. CCC1NC(N)=Nc2cccc(Cl)c21 (centres undefined)
6. CCC1NC(N)=Nc2ccc(Cl)c(Cl)c21 (centres undefined)

Result:
6.31
7.13
6.25
6.82
6.42
6.81

Hi! Can you tell me pKi for each of these molecules?
1. NC1=Nc2cccc(Cl)c2CN1
2. CC1NC(N)=Nc2ccc(Cl)c(Cl)c21 (centres undefined)
3. NC1=Nc2ccc(Cl)c(Cl)c2CN1
4. COc1cc(Cl)c(C)c2c1N=C(N)NC2C (centres undefined)

Result:
1. 6.18
2. 7.59
3. 6.68
4. 7.72

----------
# targetOrSystem: 5-hydroxytryptamine receptor 1D (Homo sapiens)
# Sequence (P28221 whole entry): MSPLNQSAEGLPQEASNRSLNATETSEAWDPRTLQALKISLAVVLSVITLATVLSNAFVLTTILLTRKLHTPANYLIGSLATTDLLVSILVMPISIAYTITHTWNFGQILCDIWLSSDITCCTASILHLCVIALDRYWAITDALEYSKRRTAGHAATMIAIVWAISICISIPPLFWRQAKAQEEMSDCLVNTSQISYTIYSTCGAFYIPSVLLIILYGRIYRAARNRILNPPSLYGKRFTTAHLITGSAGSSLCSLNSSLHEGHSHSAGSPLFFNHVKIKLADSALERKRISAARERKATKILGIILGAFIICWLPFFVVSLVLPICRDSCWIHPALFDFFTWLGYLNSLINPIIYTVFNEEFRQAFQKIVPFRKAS
# experiment: Displacement of [3H]LSD from human recombinant 5HT1D receptor expressed in HEK293-EBNA cells
readoutType: pKi
Answers are plain numbers, as −log10 of the molar value.

compound	recordedNumber
NC1=Nc2ccc(Cl)c(Cl)c2CN1	5.90

Hi! Can you tell me pKi for each of these compounds?
1. CNC1=Nc2cccc(Cl)c2C(C)N1 (centres undefined)
2. COc1cccc2c1N=C(N)NC2C (centres undefined)
3. CC1NC(N)=Nc2ccc(Cl)c(Cl)c21 (centres undefined)

Result:
1. 5.84
2. 6.35
3. 6.59

Hi! Can you tell me pKi for each of these compounds?
1. CC1NC(N)=Nc2c(Cl)ccc(Cl)c21 (centres undefined)
2. CNC1=Nc2c(OC(C)C)cccc2C(C)N1 (centres undefined)
3. COc1c(Cl)ccc2c1C(C)NC(N)=N2 (centres undefined)

Result:
1. 6.02
2. 6.80
3. 5.94

Hi! Can you tell me pKi for each of these compounds?
1. CNC1=Nc2ccc(Cl)c(Cl)c2C(C)N1 (centres undefined)
2. COc1cc(Cl)c(C)c2c1N=C(N)NC2C (centres undefined)
3. CC(C)Oc1cccc2c1N=C(N)NC2C (centres undefined)
4. CC1NC(N)=Nc2cccc(Cl)c21 (centres undefined)
5. CCC1NC(N)=Nc2ccc(Cl)c(Cl)c21 (centres undefined)
6. NC1=Nc2cccc(Cl)c2CN1

Result:
1. 6.34
2. 6.84
3. 7.15
4. 5.90
5. 5.89
6. 5.44

----------
# targetOrSystem: UniProt P08908
# Sequence (P08908 whole entry): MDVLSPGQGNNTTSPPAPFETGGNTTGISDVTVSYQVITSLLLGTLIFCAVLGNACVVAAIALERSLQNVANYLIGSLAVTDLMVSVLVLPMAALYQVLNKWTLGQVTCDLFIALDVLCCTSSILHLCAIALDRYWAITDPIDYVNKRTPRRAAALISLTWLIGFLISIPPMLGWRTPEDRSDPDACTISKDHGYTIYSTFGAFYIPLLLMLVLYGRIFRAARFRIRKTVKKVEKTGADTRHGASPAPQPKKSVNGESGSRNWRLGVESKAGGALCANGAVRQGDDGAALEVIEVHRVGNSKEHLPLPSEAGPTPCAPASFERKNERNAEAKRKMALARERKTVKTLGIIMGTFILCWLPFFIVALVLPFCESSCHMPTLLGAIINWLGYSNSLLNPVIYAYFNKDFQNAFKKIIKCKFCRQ
# experiment: Displacement of [3H]8-OH-DPAT from human recombinant 5HT1A receptor expressed in HEK293-EBNA cells
# Type: cell-based
// NB: equality with 200 nM counts as Condition not met; only Ki strictly below is Condition met

Field: example entries. Status: answers known.
compound	category
COc1c(Cl)ccc2c1C(C)NC(N)=N2 (stereo not drawn)	Condition not met
CC(C)Oc1cccc2c1N=C(N)NC2C (stereo not drawn)	Condition not met
CC1NC(N)=Nc2cccc(Cl)c21 (stereo not drawn)	Condition met
COc1cccc2c1N=C(N)NC2C (stereo not drawn)	Condition met
CNC1=Nc2cccc(Cl)c2C(C)N1 (stereo not drawn)	Condition not met
CC1NC(N)=Nc2ccc(Cl)c(Cl)c21 (stereo not drawn)	Condition met
CNC1=Nc2ccc(Cl)c(Cl)c2C(C)N1 (stereo not drawn)	Condition not met

# evaluate next
Problem: Item `NC1=Nc2ccc(Cl)c(Cl)c2CN1` : Ki beneath 200 nM, strictly?
Result: Condition not met

----------
# targetOrSystem: 5-hydroxytryptamine receptor 5A (Homo sapiens, UniProt P47898)
# Sequence (P47898 whole entry): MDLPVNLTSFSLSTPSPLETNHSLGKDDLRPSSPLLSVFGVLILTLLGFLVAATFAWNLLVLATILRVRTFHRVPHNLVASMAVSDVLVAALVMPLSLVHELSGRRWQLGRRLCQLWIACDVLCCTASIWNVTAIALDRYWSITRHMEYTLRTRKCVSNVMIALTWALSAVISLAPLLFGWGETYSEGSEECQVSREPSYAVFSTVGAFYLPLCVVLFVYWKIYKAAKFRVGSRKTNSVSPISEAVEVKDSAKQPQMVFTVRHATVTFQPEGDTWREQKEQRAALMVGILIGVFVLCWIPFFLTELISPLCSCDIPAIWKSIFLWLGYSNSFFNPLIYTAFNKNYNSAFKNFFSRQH
# experiment: Displacement of [3H]LSD from human recombinant 5HT5A receptor expressed in HEK293-EBNA cells
# Assay type: cell-based
readoutType: pKi
Give bare numbers, as −log10 of the molar value.

// solved cases for pKi follow
compound	pKi
Cc1cccc2c1CNC(N)=N2	6.84
CCC1NC(N)=Nc2cccc(Cl)c21 (stereo not drawn)	7.07

Problem: Requested read-out: pKi. Entry: `COc1cccc2c1N=C(N)NC2`
Result: 7.01
